- measured_on: recombinant human IL-21 (rhIL-21) (human, UniProt Q9HBE4 30-162, limits assumed)
- Sequence (Q9HBE4 30-162 limits assumed): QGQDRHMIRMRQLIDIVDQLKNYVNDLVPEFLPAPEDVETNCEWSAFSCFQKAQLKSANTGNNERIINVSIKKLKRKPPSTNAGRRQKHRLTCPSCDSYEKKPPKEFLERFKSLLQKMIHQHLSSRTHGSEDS
- assay_overview: cell-based or functional assay
% pSTAT3+ Jurkat cells, 0.1 nM rhIL-21 + 1.006 nM antibody values by entry
The reply should contain only the number, in %.

Record excerpt, results attached:
Request: Tell me its % pSTAT3+ Jurkat cells, 0.1 nM rhIL-21 + 1.006 nM antibody given MIZ926 (antibody, human IgG1, V domains shown) VH: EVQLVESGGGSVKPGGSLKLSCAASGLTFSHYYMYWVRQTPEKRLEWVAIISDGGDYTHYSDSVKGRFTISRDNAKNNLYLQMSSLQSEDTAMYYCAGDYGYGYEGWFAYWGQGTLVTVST VL: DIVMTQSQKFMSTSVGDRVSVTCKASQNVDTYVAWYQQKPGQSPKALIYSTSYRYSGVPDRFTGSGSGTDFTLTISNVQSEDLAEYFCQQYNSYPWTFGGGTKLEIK as the entry.
Result: 65.3

Request: Tell me its % pSTAT3+ Jurkat cells, 0.1 nM rhIL-21 + 1.006 nM antibody given FYP014 (antibody, human IgG1, V domains shown, human IgG1; also called EP3103813A1 clone 366.328.10.63) VH: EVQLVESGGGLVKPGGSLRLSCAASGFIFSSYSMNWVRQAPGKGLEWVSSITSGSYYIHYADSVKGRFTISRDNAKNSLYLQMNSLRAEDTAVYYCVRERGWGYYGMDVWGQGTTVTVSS VL: AIQLTQSPSSLSASVGDRVTITCRASQDIDSALAWYQQKPGKAPKILIHDASSLESGVPSRFSGSGSGTDFTLTISSLQPEDFATYYCQQFNSYPYTFGQGTKLEIK as the entry.
Result: 5.9

Request: Tell me its % pSTAT3+ Jurkat cells, 0.1 nM rhIL-21 + 1.006 nM antibody given ZAP122 (antibody, human IgG1, V domains shown) VH: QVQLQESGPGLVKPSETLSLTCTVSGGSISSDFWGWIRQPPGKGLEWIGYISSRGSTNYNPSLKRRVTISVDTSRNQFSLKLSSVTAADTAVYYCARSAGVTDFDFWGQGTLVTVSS VL: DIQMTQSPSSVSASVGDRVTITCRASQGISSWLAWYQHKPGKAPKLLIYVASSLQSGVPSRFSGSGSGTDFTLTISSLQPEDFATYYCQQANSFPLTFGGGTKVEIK as the entry.
Result: 10.8

// below: % pSTAT3+ Jurkat cells, 0.1 nM rhIL-21 + 1.006 nM antibody requested for another binder
Request: Tell me its % pSTAT3+ Jurkat cells, 0.1 nM rhIL-21 + 1.006 nM antibody given LKK631 (antibody, human IgG1, V domains shown) VH: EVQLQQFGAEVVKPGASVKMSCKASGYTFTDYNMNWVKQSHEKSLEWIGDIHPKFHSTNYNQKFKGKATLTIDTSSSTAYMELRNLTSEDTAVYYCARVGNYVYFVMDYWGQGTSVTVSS VL: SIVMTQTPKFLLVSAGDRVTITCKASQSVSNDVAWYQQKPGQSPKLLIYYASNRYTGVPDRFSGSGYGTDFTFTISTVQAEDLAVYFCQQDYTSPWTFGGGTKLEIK as the entry.
Result: 69.5
